Overview of reported Fluorescence Intensity Geomean (normalized to background) across a group of binders:
molecular target: T1, human CD1b expressed on HEK-293 cells (human, UniProt P29016 18-333; P61769 21-119); assay: flow cytometry, HEK-293 cells, 0.1 µg/ml antibody
T1 construct: also called HEK - CD1b
READOUT NAME: Fluorescence Intensity Geomean (normalized to background) (fold over background)

BINDER	UOM	MEASURED RESULT
77A (VR11851) (antibody, V domains shown, also called OX77a; antibody 77a) VH: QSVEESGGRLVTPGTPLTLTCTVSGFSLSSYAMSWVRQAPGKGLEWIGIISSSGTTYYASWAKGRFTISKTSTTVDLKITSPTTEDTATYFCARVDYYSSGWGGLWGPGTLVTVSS VL: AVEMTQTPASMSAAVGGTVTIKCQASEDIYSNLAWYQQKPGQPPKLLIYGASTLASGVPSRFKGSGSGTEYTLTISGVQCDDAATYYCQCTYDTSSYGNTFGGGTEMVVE	fold over background	1
116 (VR12117) (antibody, V domains shown, also called OX116) VH: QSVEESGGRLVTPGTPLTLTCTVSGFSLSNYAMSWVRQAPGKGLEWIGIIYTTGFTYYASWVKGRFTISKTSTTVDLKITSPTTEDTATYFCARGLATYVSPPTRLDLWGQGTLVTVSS VL: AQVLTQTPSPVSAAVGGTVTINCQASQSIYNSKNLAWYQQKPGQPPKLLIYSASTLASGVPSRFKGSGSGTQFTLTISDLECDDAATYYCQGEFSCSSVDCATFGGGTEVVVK	fold over background	1
111 (VR12113) (antibody, V domains shown, also called OX111) VH: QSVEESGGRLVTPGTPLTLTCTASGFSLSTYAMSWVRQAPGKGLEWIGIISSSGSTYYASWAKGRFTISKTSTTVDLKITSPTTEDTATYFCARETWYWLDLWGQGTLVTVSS VL: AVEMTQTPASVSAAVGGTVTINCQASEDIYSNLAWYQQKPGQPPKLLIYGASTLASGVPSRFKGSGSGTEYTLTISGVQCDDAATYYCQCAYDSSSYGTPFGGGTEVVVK	fold over background	1

Source listed as patent US20250289893A1.
